Here, each record is paired with measured MNTC at 24 h data.
- experiment: Cytotoxicity against mouse RAW264.7 cells assessed as reduction in cell viability incubated for 24 hrs by MTT assay
- Type: cell-based
- measurement-parameters: read-out: MNCC
All answers are understood in µM, so give the number only.

CC(C)=CCc1c2c(c(O)c3c(=O)cc(-c4ccc(O)cc4)oc13)C=CC(C)(C)O2	3.1

--- query ---
Query string: What measured MNTC at 24 h goes with O=c1cc(-c2ccc(O)cc2)oc2cc(O)cc(O)c12 ?
Result string: 9.2

Data origin: ChEMBL document CHEMBL4414566
